Protocol Summary: NCI Yeast Anticancer Drug Screen. Data for the bub3 strain (AID 167)
Settings: S. cerevisiae bub3 mutant strain, at 50.0 µM
About 79,000 compounds went through this panel and 15% of them were active in at least one assay; those are over-represented in the sample as a whole. Calls of active or inactive are those of the source. Cut-off read from the data, not from the text of the source: active = growth inhibition above about 70%; inactive = the rest.
# valid calls are 1 = active, -1 = inactive; nothing else

Hey, what did the test say about `C[C@H]1S[C@@H](c2ccc(Cl)cc2Cl)N(NC(=O)c2ccncc2)C1=O` ?
-1

Lookup `N#CC(CCc1ccccc1[N+](=O)[O-])(CCc1ccccc1[N+](=O)[O-])C(N)=O`
-1

Lookup NC(CC(F)(F)F)C(=O)O (stereo unspecified)
-1

Lookup `C/C(=C\O[Si](C)(C)C)c1ccccc1`
-1

Lookup COC(=O)CC(C(C(=O)OC)C(=O)OC)N1C(=O)OC(c2ccccc2)C1c1ccccc1 (stereo unspecified)
-1

Lookup Cc1ccc(Cl)cc1NC(=O)C(Br)C(Br)C(=O)O (stereo unspecified)
1

Lookup NC(C(=O)O)c1ccc(F)cc1 (stereo unspecified)
-1

Lookup `COc1cc(N=Nc2ccc(N)nc2N)c(OC)cc1N=Nc1ccc([N+](=O)[O-])cc1`
-1

Lookup CC(=O)OCC1OC(n2c(C)c(N=Nc3ccc(C)cc3)c(C)c(C#N)c2=S)C(OC(C)=O)C(OC(C)=O)C1OC(C)=O (stereo unspecified)
-1

Lookup `Cc1ccc(S(=O)(=O)N(c2cc(C)ccc2C)c2ccccc2N)cc1`
-1

Lookup `c1ccc(OCCSCCCCCCCCCCSCCOc2ccccc2)cc1`
-1
